Tested on: Danio rerio larvae (5 dpf)
test-protocol: difference in startle response vs DMSO (percentage points); higher = stronger startle than DMSO
conditions: 10 µM; exposure time 6 h
Where a name gives a salt, the structure may show the parent alone.
measure: difference in startle response

Provide difference in startle response, recorded with Danio rerio larvae (5 dpf), of C[C@@H](O)[C@H]1C(=O)N2C(C(=O)O)=C(S[C@@H]3CN[C@H](C(=O)Nc4cccc(C(=O)O)c4)C3)[C@H](C)[C@H]12 [Ertapenem (sodium salt)]
3.36

Give difference in startle response only, for CCCc1nn(C)c2c(=O)[nH]c(-c3cc(S(=O)(=O)N4CCN(C)CC4)ccc3OCC)nc12 [Sildenafil Citrate] , using Danio rerio larvae (5 dpf) data.
-0.935

Report value only: difference in startle response, Danio rerio larvae (5 dpf), CC(C)(C)C(O)/C=C/c1ccc2c(c1)OCO2 (configuration not stated)
0.0472

Check Danio rerio larvae (5 dpf) data and give difference in startle response for CO[C@@]1(NC(=O)C2SC(=C(C(N)=O)C(=O)O)S2)C(=O)N2C(C(=O)O)=C(CSc3nnnn3C)CS[C@@H]21 (some centres not stated) [Cefotetan (sodium salt)] .
4.7

Find difference in startle response for CN1CCN(C2=Nc3cc(Cl)ccc3Nc3ccccc32)CC1 on Danio rerio larvae (5 dpf) and write it down.
-11.3

Lab note: Danio rerio larvae (5 dpf) assay, enter difference in startle response for CCCCCC(=O)O[C@]1(C(C)=O)CC[C@H]2[C@@H]3CCC4=CC(=O)CC[C@]4(C)[C@H]3CC[C@@]21C [Hydroxyprogesterone Caproate] here
-9.54

Give difference in startle response; test system Danio rerio larvae (5 dpf); compound O=C(CCCN1CC=C(n2c(=O)[nH]c3ccccc32)CC1)c1ccc(F)cc1
-1.85
